target.entity: T1, L-selectin (LS-Rg) (Homo sapiens, UniProt P14151 P14151:39-332)
T1 chain: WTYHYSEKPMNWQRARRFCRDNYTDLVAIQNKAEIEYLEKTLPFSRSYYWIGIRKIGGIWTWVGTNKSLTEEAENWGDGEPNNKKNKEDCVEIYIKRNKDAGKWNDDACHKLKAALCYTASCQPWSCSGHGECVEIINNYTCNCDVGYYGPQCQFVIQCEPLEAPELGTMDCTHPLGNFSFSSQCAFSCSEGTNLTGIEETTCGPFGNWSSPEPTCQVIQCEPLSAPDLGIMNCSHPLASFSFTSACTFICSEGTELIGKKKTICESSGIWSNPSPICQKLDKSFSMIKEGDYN
assay.text: filter; room temp; 8.4 nM at 37 C
test.context: tags: human IgG2 Fc fusion (provided by A. Varki); label: 32P
measure.name: Kd (nM)

>>> result_number("214 (ssDNA) DNA: CTACCTACGATCTGACTAGCTGATGCGACTTTAGTCGAACGTTACTGGGGCTCAGAGGACAGCTTACTCTCATGTAGTTCC")
0.66
